species on record: Rattus norvegicus; test: Open TG-GATES - Regimen: Daily Repeat; type: toxicity, organism-based, Sprague-Dawley; design: regimen Daily Repeat, gender Male, age 6 weeks; conditions: in vivo, po, 300 mg/kg, […], tissue Plasma, route gavage, dose level Middle, time 7 day
Assignment: determine reported CRE for the given compounds.
Report only the number, with the unit mg/dL understood.

Lookup result for CCN1CCCC1CNC(=O)c1cc(S(N)(=O)=O)ccc1OC (centres undefined) [SULPIRIDE] ; measured CRE: 0.2

O=C(O)c1cccnc1 has a reported CRE of 0.1

Please fill in: CRE reported for O=C(N[C@H](CO)[C@H](O)c1ccc([N+](=O)[O-])cc1)C(Cl)Cl = 0.2

Form field CRE, entry CC(C)(S)[C@@H](N)C(=O)O : 0.2
